All figures here come from ChEMBL document CHEMBL4627352.

Test system: Staphylococcus epidermidis
Experiment: Inhibition of DHPS in Staphylococcus epidermidis assessed as antibacterial activity by measuring inhibition zone at 5 mg/mL incubated for 24 hrs by disk diffusion method
quantity: inhibition zone (IZ)

Please review the following examples before continuing.
itemSmiles	result
CN/C(S[C@@H]1O[C@H](COC(C)=O)[C@H](OC(C)=O)[C@H](OC(C)=O)[C@H]1OC(C)=O)=C(/C#N)C(=O)Nc1ccc(S(=O)(=O)Nc2onc(C)c2C)cc1	15.4 mm
CC(=O)OC[C@H]1O[C@@H](S/C(Nc2ccccc2)=C(\C#N)C(=O)Nc2ccc(S(=O)(=O)Nc3onc(C)c3C)cc2)[C@H](OC(C)=O)[C@@H](OC(C)=O)[C@H]1OC(C)=O	14.2 mm
CC1(C)S[C@@H]2[C@H](NC(=O)[C@H](N)c3ccccc3)C(=O)N2[C@H]1C(=O)O	25.4 mm
CC(=O)OC[C@H]1O[C@@H](S/C(Nc2ccccc2)=C(\C#N)C(=O)Nc2ccc(S(=O)(=O)Nc3onc(C)c3C)cc2)[C@H](OC(C)=O)[C@@H](OC(C)=O)[C@@H]1OC(C)=O	18.9 mm

Would you kindly share the measured inhibition zone (IZ) for CN/C(S[C@@H]1O[C@H](COC(C)=O)[C@@H](OC(C)=O)[C@H](OC(C)=O)[C@H]1OC(C)=O)=C(/C#N)C(=O)Nc1ccc(S(=O)(=O)Nc2onc(C)c2C)cc1 ?
20.4 mm

Would you kindly share the measured inhibition zone (IZ) for C=CCN/C(S[C@@H]1O[C@H](COC(C)=O)[C@H](OC(C)=O)[C@H](OC(C)=O)[C@H]1OC(C)=O)=C(/C#N)C(=O)Nc1ccc(S(=O)(=O)Nc2onc(C)c2C)cc1 ?
17.1 mm

###

Tested on: Escherichia coli ATCC 25922
Assay: Inhibition of DHPS in Escherichia coli ATCC 25922 assessed as inhibition of bacterial growth incubated for 24 hrs in presence of folate precursor, pABA by microbroth dilution method
Calls of active or inactive are those of the source. No cut-off for these calls is given here.
quantity: inhibition

itemSmiles	result
CCN/C(SCC)=C(/C#N)C(=O)Nc1ccc(S(=O)(=O)Nc2onc(C)c2C)cc1	inactive
CS/C(Nc1ccccc1)=C(\C#N)C(=O)Nc1ccc(S(=O)(=O)Nc2onc(C)c2C)cc1	inactive
CCN/C(S[C@@H]1O[C@H](COC(C)=O)[C@@H](OC(C)=O)[C@H](OC(C)=O)[C@H]1OC(C)=O)=C(/C#N)C(=O)Nc1ccc(S(=O)(=O)Nc2onc(C)c2C)cc1	inactive

###

Test system: Geotrichum candidum
Assay: Potency index, ratio of sulfisoxazole MIC to compound MIC for Geotrichum candidum assessed as inhibition of DHPS-mediated fungal growth incubated for 48 hrs by microbroth dilution method
quantity: Ratio
Reply briefly: the number, and no unit.

Would you kindly share the measured Ratio for C=CCN/C(S)=C(/C#N)C(=O)Nc1ccc(S(=O)(=O)Nc2onc(C)c2C)cc1 ?
6

Would you kindly share the measured Ratio for CN/C(S)=C(/C#N)C(=O)Nc1ccc(S(=O)(=O)Nc2onc(C)c2C)cc1 ?
2

Would you kindly share the measured Ratio for C=CCN/C(S[C@@H]1O[C@H](COC(C)=O)[C@H](OC(C)=O)[C@H](OC(C)=O)[C@H]1OC(C)=O)=C(/C#N)C(=O)Nc1ccc(S(=O)(=O)Nc2onc(C)c2C)cc1 ?
2

###

Test system: Staphylococcus epidermidis
Assay: Inhibition of DHPS in Staphylococcus epidermidis assessed as antibacterial activity by measuring inhibition zone at 5 mg/mL incubated for 24 hrs by disk diffusion method
Active and inactive are the calls of the source. No cut-off for these calls is given here.
quantity: inhibition zone (IZ)

itemSmiles	targetSystem	inhibition zone (IZ)
Cc1noc(NS(=O)(=O)c2ccc(N)cc2)c1C	Staphylococcus epidermidis	17.5 mm
CCS/C(NC12CC3CC(CC(C3)C1)C2)=C(\C#N)C(=O)Nc1ccc(S(=O)(=O)Nc2onc(C)c2C)cc1	Staphylococcus epidermidis	inactive
CCS/C(NC)=C(\C#N)C(=O)Nc1ccc(S(=O)(=O)Nc2onc(C)c2C)cc1	Staphylococcus epidermidis	20.9 mm
C=CCN/C(SC)=C(/C#N)C(=O)Nc1ccc(S(=O)(=O)Nc2onc(C)c2C)cc1	Staphylococcus epidermidis	inactive

Would you kindly share the measured inhibition zone (IZ) for C=CCN/C(S)=C(/C#N)C(=O)Nc1ccc(S(=O)(=O)Nc2onc(C)c2C)cc1 ?
20.1 mm

Would you kindly share the measured inhibition zone (IZ) for Cc1noc(NS(=O)(=O)c2ccc(NC(=O)/C(C#N)=C(/S)NC34CC5CC(CC(C5)C3)C4)cc2)c1C ?
16.2 mm

Would you kindly share the measured inhibition zone (IZ) for CCN/C(S)=C(/C#N)C(=O)Nc1ccc(S(=O)(=O)Nc2onc(C)c2C)cc1 ?
17.3 mm

Would you kindly share the measured inhibition zone (IZ) for CS/C(Nc1ccccc1)=C(\C#N)C(=O)Nc1ccc(S(=O)(=O)Nc2onc(C)c2C)cc1 ?
inactive

Would you kindly share the measured inhibition zone (IZ) for CCN/C(SCC)=C(/C#N)C(=O)Nc1ccc(S(=O)(=O)Nc2onc(C)c2C)cc1 ?
22.8 mm

###

Test system: Staphylococcus epidermidis
Assay: Inhibition of DHPS in Staphylococcus epidermidis assessed as antibacterial activity by measuring inhibition of bacterial growth incubated for 24 hrs by microbroth dilution method
quantity: MIC (µg/mL)
Expressed in µg/mL, but write only the number.

Would you kindly share the measured MIC for Cc1noc(NS(=O)(=O)c2ccc(NC(=O)/C(C#N)=C(/S)NC34CC5CC(CC(C5)C3)C4)cc2)c1C ?
62.5

Would you kindly share the measured MIC for Cc1noc(NS(=O)(=O)c2ccc(N)cc2)c1C ?
7.81

Would you kindly share the measured MIC for C=CCN/C(S[C@@H]1O[C@H](COC(C)=O)[C@H](OC(C)=O)[C@H](OC(C)=O)[C@H]1OC(C)=O)=C(/C#N)C(=O)Nc1ccc(S(=O)(=O)Nc2onc(C)c2C)cc1 ?
15.6

Would you kindly share the measured MIC for Cc1noc(NS(=O)(=O)c2ccc(NC(=O)c3c(N)n[nH]c3Nc3ccccc3)cc2)c1C ?
15.6

Would you kindly share the measured MIC for CN/C(S[C@@H]1O[C@H](COC(C)=O)[C@H](OC(C)=O)[C@H](OC(C)=O)[C@H]1OC(C)=O)=C(/C#N)C(=O)Nc1ccc(S(=O)(=O)Nc2onc(C)c2C)cc1 ?
62.5

Would you kindly share the measured MIC for CN/C(S)=C(/C#N)C(=O)Nc1ccc(S(=O)(=O)Nc2onc(C)c2C)cc1 ?
1.95

Would you kindly share the measured MIC for CCS/C(NC)=C(\C#N)C(=O)Nc1ccc(S(=O)(=O)Nc2onc(C)c2C)cc1 ?
1.95

Would you kindly share the measured MIC for C=CCN/C(S)=C(/C#N)C(=O)Nc1ccc(S(=O)(=O)Nc2onc(C)c2C)cc1 ?
3.9

###

Tested on: Klebsiella pneumoniae
Experiment: Inhibition of DHPS in Klebsiella pneumoniae assessed as antibacterial activity by measuring inhibition of bacterial growth incubated for 24 hrs by microbroth dilution method
quantity: MIC (µg/mL)
Expressed in µg/mL, but write only the number.

Please review the following examples before continuing.
itemSmiles	quantity	recordedNumber
CC(=O)OC[C@H]1O[C@@H](S/C(Nc2ccccc2)=C(\C#N)C(=O)Nc2ccc(S(=O)(=O)Nc3onc(C)c3C)cc2)[C@H](OC(C)=O)[C@@H](OC(C)=O)[C@@H]1OC(C)=O	MIC	62.5
CCN/C(SCC)=C(/C#N)C(=O)Nc1ccc(S(=O)(=O)Nc2onc(C)c2C)cc1	MIC	0.49
CC(=O)OC[C@H]1O[C@@H](S/C(Nc2ccccc2)=C(\C#N)C(=O)Nc2ccc(S(=O)(=O)Nc3onc(C)c3C)cc2)[C@H](OC(C)=O)[C@@H](OC(C)=O)[C@H]1OC(C)=O	MIC	62.5
C=CCN/C(S[C@@H]1O[C@H](COC(C)=O)[C@H](OC(C)=O)[C@H](OC(C)=O)[C@H]1OC(C)=O)=C(/C#N)C(=O)Nc1ccc(S(=O)(=O)Nc2onc(C)c2C)cc1	MIC	0.98
Cc1noc(NS(=O)(=O)c2ccc(N)cc2)c1C	MIC	7.81

Would you kindly share the measured MIC for Cc1noc(NS(=O)(=O)c2ccc(NC(=O)/C(C#N)=C(/S)NC34CC5CC(CC(C5)C3)C4)cc2)c1C ?
62.5

Would you kindly share the measured MIC for C=CCN/C(S[C@@H]1O[C@H](COC(C)=O)[C@@H](OC(C)=O)[C@H](OC(C)=O)[C@H]1OC(C)=O)=C(/C#N)C(=O)Nc1ccc(S(=O)(=O)Nc2onc(C)c2C)cc1 ?
0.49

Would you kindly share the measured MIC for CN/C(S[C@@H]1O[C@H](COC(C)=O)[C@@H](OC(C)=O)[C@H](OC(C)=O)[C@H]1OC(C)=O)=C(/C#N)C(=O)Nc1ccc(S(=O)(=O)Nc2onc(C)c2C)cc1 ?
0.98

Would you kindly share the measured MIC for CN/C(S[C@@H]1O[C@H](COC(C)=O)[C@H](OC(C)=O)[C@H](OC(C)=O)[C@H]1OC(C)=O)=C(/C#N)C(=O)Nc1ccc(S(=O)(=O)Nc2onc(C)c2C)cc1 ?
31.2

Would you kindly share the measured MIC for CN/C(S)=C(/C#N)C(=O)Nc1ccc(S(=O)(=O)Nc2onc(C)c2C)cc1 ?
0.98
